STUDY TARGET: feline FcRn complex (FcRn-α subunit and β-microglobulin), biotin labeled (feline)
ASSAY PROCEDURE: SPR, pH 6
MEASURE: Kd (nM)

• feline IgG1a S428P (antibody, part only; not given: Variable domains, not shown: another chain or arm of the molecule; small tags and cut ends) constant: ASTTAPSVFPLAPSCGTTSGATVALACLVLGYFPEPVTVSWNSGALTSGVHTFPAVLQASGLYSLSSMVTVPSSRWLSDTFTCNVAHPPSNTKVDKTVRKTDHPPGPKPCDCPKCPPPEMLGGPSIFIFPPKPKDTLSISRTPEVTCLVVDLGPDDSDVQITWFVDNTQVYTAKTSPREEQFNSTYRVVSVLPILHQDWLKGKEFKCKVNSKSLPSPIERTISKAKGQPHEPQVYVLPPAQEELSRNKVSVTCLIKSFHPPDIAVEWEITGQPEPENNYRTTPPQLDSDGTYFVYSKLSVDRSHWQRGNTYTCSVPHEALHSHHTQKSLTQSPGK = 18
